- assay-system: Vps34 (PIK3C3 lipid kinase) (Homo sapiens)
- Sequence (Q8NEB9 whole entry, species assumed): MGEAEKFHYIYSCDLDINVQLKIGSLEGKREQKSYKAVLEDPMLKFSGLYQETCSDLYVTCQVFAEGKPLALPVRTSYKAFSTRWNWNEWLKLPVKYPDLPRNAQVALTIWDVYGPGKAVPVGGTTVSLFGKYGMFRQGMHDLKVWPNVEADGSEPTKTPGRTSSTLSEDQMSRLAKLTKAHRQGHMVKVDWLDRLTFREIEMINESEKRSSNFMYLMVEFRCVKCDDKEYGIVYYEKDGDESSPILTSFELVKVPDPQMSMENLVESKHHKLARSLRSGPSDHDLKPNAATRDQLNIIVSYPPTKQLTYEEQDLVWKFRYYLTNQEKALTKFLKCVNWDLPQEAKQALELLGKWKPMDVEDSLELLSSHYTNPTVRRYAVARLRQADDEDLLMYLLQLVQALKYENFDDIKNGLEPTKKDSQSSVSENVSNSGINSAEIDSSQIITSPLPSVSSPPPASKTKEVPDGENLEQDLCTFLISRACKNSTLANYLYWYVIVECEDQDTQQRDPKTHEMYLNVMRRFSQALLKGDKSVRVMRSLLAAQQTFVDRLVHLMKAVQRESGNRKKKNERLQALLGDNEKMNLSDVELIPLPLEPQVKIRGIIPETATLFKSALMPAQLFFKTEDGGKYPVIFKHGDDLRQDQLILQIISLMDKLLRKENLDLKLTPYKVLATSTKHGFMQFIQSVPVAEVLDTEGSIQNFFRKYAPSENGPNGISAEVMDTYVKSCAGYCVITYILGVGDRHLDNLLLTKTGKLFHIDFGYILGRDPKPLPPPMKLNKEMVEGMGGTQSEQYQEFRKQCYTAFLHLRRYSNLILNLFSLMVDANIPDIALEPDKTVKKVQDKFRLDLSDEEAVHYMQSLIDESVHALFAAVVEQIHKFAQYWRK
- test-summary: Biochemical Vps34 lipid kinase assay (ADP-Glo)
- recorded-conditions: serial half-log dilution 10 μM to 0.3 nM; pIC50 = -log IC50 (M)

{"molecule": "CN1CCCN(C)c2ccc(cn2)-c2ccnc(n2)Nc2cccc(c2)CN2CCN(CC1=O)C(CO)C2 (single isomer, unassigned)", "IC50 (M)": "3.47e-07"}
{"molecule": "CN1CCCN(C)c2ccc(cn2)-c2ccnc(n2)Nc2cncc(c2)CN2CCN(CC2)CC1=O", "IC50 (M)": "7.41e-07"}
{"molecule": "CC1CN2CCN1Cc1cccc(c1)Nc1nccc(n1)-c1ccc(nc1)NCCCNC(=O)C2 (stereo not shown) [Compound 60]", "IC50 (M)": "6.46e-08"}
{"molecule": "NC(=O)C1CN2CCN1Cc1cccc(c1)Nc1nccc(n1)-c1ccc(nc1)NCCCNC(=O)C2 (stereo not shown)", "IC50 (M)": "3.89e-08"}
{"molecule": "CN1CCCN(C)c2ccc(cn2)-c2ccnc(n2)Nc2cccc(c2)CN2CCN(CC1=O)CC2CO (stereo not shown) [Compound 51]", "IC50 (M)": "4.79e-07"}
{"molecule": "O=C1CN2CCN(Cc3cccc(c3)Nc3nccc(n3)-c3ccc(nc3)NCCCN1)C(CO)C2 (stereo not shown) [Compound 46]", "IC50 (M)": "2.69e-08"}
{"molecule": "O=C1CN2CCN(CC2)Cc2cc(Cl)cc(c2)Nc2nccc(n2)-c2ccc(nc2)NCCCN1", "IC50 (M)": "9.77e-08"}

* * *

Each item that follows carries a reported IC50.
- assay-system: EF2K (Homo sapiens)
- Construct: host or cells: LN-229 cell lysate
- test-summary: Biochemical EF2K lysate-based kinase assay (AlphaLISA p-eEF2 Thr56)
- recorded-conditions: pIC50 = -log IC50 (M), read-out: eEF2K_C_alphalisa pIC50 (converted)
endpoint-label: IC50

{"compound": "O=C1CN2CCCN(CC2)Cc2cccc(c2)Nc2nccc(n2)-c2ccc(nc2)NCCCN1 [Compound 56]", "endpoint-label": "IC50", "meas-value": "4.07e-06 M"}
{"compound": "CN1CCCN(C)c2ccc(cn2)-c2ccnc(n2)Nc2cccc(c2)CN2CCN(CC1=O)CC2COCCN1CCNCC1 (stereo not drawn) [Compound 107]", "endpoint-label": "IC50", "meas-value": "3.24e-07 M"}
{"compound": "CC1CN2CCN1Cc1cccc(c1)Nc1nccc(n1)-c1ccc(nc1)NCCCNC(=O)C2 (single isomer, unassigned) [Compound 62]", "endpoint-label": "IC50", "meas-value": "7.76e-08 M"}
{"compound": "CC1CN2CCN1Cc1cccc(c1)Nc1nccc(n1)-c1ccc(nc1)NCCCNC(=O)C2 (stereo not drawn) [Compound 60]", "endpoint-label": "IC50", "meas-value": "1.78e-07 M"}
{"compound": "O=C1CN2CCN(CC2)S(=O)(=O)c2cccc(c2)Nc2nccc(n2)-c2ccc(nc2)NCCCN1 [Compound 116]", "endpoint-label": "IC50", "meas-value": "7.76e-06 M"}
{"compound": "NC(=O)C1CN2CCN1CC(=O)NCCCNc1ccc(cn1)-c1ccnc(n1)Nc1cccc(c1)C2 (stereo not drawn) [Compound 126]", "endpoint-label": "IC50", "meas-value": "1.74e-07 M"}
{"compound": "O=C1CNCCCNc2ccc(cn2)-c2ccnc(n2)Nc2cccc(c2)N2CCN1CC2 [Compound 111]", "endpoint-label": "IC50", "meas-value": "4.47e-06 M"}
{"compound": "O=C1CN2CCN(Cc3cccc(c3)Nc3nccc(n3)-c3ccc(nc3)NCCCN1)C(CO)C2 (single isomer, unassigned) [Compound 47]", "endpoint-label": "IC50", "meas-value": "< 3.02e-08 M"}
{"compound": "CC(C)CN1CCNC(=O)CN2CCN(CC2)Cc2cccc(c2)Nc2nccc(n2)-c2ccc(nc2)C1 [Compound 38]", "endpoint-label": "IC50", "meas-value": "8.91e-09 M"}
{"compound": "CN1CCCNC(=O)CC2CCN(CC2)Cc2cccc(c2)Nc2nccc(n2)-c2ccc1nc2 [Compound 125]", "endpoint-label": "IC50", "meas-value": "1.58e-05 M"}
{"compound": "CN1CCN(CCOCC2CN3CCN2Cc2cccc(c2)Nc2nccc(n2)-c2ccc(nc2)N(C)CCCN(C)C(=O)C3)CC1 (stereo not drawn) [Compound 106]", "endpoint-label": "IC50", "meas-value": "3.02e-07 M"}
{"compound": "COCC1CN2CCN1Cc1cccc(c1)Nc1nccc(n1)-c1ccc(nc1)N(C)CCCN(C)C(=O)C2 (stereo not drawn) [Compound 97]", "endpoint-label": "IC50", "meas-value": "1.51e-07 M"}
{"compound": "CNC(=O)c1ccc2cc1CN1CCN(CC1)CC(=O)NCCCNc1ccc(cn1)-c1ccnc(n1)N2 [Compound 13]", "endpoint-label": "IC50", "meas-value": "3.98e-07 M"}
{"compound": "CN1CCCN(C)c2ccc(cn2)-c2ccnc(n2)Nc2cccc(c2)CN2CCN(CC1=O)CC2COCCN1CCOCC1 (stereo not drawn) [Compound 98]", "endpoint-label": "IC50", "meas-value": "1.48e-07 M"}
{"compound": "COC(=O)C1CN2CCN1Cc1cccc(c1)Nc1nccc(n1)-c1ccc(nc1)N(C)CCCN(C)C(=O)C2 (stereo not drawn) [Compound 55]", "endpoint-label": "IC50", "meas-value": "1.45e-07 M"}

* * *

Each item that follows carries a reported log10 of IC50.
- assay-system: UniProt:Q8NEB9
- test-summary: Biochemical Vps34 lipid kinase assay (ADP-Glo)
- recorded-conditions: serial half-log dilution 10 μM to 0.3 nM; pIC50 = -log IC50 (M)
endpoint-label: log10 of IC50 (log10 of the value in M)

{"molecule": "CN1CCCN(C)c2ccc(cn2)-c2ccnc(n2)Nc2ccnc(c2)CN2CCN(CC2)CC1=O [Compound 32]", "endpoint-label": "log10 of IC50", "meas-value": -6.84}
{"molecule": "NC(=O)C1CN2CCN1CC(=O)NCCCNc1ccc(cn1)-c1ccnc(n1)Nc1cccc(c1)C2 (stereo not drawn) [Compound 126]", "endpoint-label": "log10 of IC50", "meas-value": -7.12}
{"molecule": "CNC(=O)c1ccc2cc1CN1CCN(CC1)CC(=O)N(C)CCCN(C)c1ccc(cn1)-c1ccnc(n1)N2 [Compound 12]", "endpoint-label": "log10 of IC50", "meas-value": -6.36}
{"molecule": "CN1CCCN(C)c2ccc(cn2)-c2ccnc(n2)Nc2cccc(c2)CN2CCN(CC2)C1=O [Compound 76]", "endpoint-label": "log10 of IC50", "meas-value": -6.46}
{"molecule": "NC(=O)c1ccc2cc1CN1CCN(CC1)CC(=O)NCCCNc1ccc(cn1)-c1ccnc(n1)N2 [Compound 15]", "endpoint-label": "log10 of IC50", "meas-value": -7.30}
{"molecule": "O=C1CN2CCN(CC2)Cc2cccc(c2)Nc2nccc(n2)-c2ccc(nc2)N2CC(O)CC2CCN1 (single isomer, unassigned) [Compound 89]", "endpoint-label": "log10 of IC50", "meas-value": -7.33}
{"molecule": "O=C1CN2CCN(CC2)Cc2cccc(c2)Nc2nccc(n2)-c2ccc(nc2)CNCCN1 [Compound 34]", "endpoint-label": "log10 of IC50", "meas-value": -6.08}
{"molecule": "CN1CCCNC(=O)CC2CCN(CC2)Cc2cccc(c2)Nc2nccc(n2)-c2ccc1nc2 [Compound 125]", "endpoint-label": "log10 of IC50", "meas-value": -6.47}
{"molecule": "O=C1CC2CN(CCN2)Cc2cccc(c2)Nc2nccc(n2)-c2ccc(nc2)NCCCN1 (stereo not drawn) [Compound 70]", "endpoint-label": "log10 of IC50", "meas-value": -7.92}

* * *

- assay-system: EF2K (Homo sapiens, UniProt O00418)
- Construct: host or cells: LN-229 cell lysate
- Sequence (O00418 1-725): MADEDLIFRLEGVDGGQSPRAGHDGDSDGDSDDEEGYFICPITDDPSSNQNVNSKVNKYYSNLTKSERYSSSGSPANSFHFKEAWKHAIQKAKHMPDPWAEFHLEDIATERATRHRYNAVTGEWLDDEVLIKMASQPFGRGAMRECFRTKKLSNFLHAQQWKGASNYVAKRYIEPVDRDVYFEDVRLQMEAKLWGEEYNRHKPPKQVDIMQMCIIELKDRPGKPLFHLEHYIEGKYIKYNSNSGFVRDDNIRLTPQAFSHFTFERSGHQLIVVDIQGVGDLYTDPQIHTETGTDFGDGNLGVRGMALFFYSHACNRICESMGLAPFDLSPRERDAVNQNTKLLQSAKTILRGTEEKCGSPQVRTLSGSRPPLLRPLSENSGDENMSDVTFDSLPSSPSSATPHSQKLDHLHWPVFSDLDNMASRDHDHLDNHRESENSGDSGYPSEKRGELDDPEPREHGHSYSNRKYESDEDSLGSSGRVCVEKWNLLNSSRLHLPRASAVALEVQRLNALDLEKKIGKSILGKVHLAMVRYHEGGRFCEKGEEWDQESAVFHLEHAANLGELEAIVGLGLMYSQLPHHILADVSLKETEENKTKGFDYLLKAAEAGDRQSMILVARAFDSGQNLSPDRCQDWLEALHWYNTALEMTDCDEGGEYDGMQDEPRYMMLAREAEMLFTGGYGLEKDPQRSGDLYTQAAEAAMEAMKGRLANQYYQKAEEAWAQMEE
- test-summary: Biochemical EF2K lysate-based kinase assay (AlphaLISA p-eEF2 Thr56)
- recorded-conditions: pIC50 = -log IC50 (M), read-out: eEF2K_C_alphalisa pIC50 (converted)
endpoint-label: IC50 (M)

{"molecule": "CN1CCCN(C)c2ccc(cn2)-c2ccnc(n2)Nc2cccc(c2)CN2CCN(CC1=O)CC2COCCN1CCOCC1 (single isomer, unassigned) [Compound 99]", "meas-value": "2.4e-06"}
{"molecule": "O=C1CN2CCN(CC2)Cc2cccc(c2)Nc2nccc(n2)-c2ccc(nc2)N2CC(O)CC2CCN1 (single isomer, unassigned) [Compound 96]", "meas-value": "6.76e-09"}
{"molecule": "O=C1CN2CCN(CC2)Cc2cccc(c2)Nc2nccc(n2)-c2ccc(nc2)CN(CC2CCOCC2)CCN1", "meas-value": "1.2e-06"}
{"molecule": "CN1CCCN(C)c2ccc(cc2)-c2ccnc(n2)Nc2cccc(c2)CN2CCN(CC1=O)C(C(=O)OCc1ccccc1)C2 (stereo not shown)", "meas-value": "8.91e-08"}
{"molecule": "CN(C)C(=O)c1ccc2cc1CN1CCN(CC1)CC(=O)NCCCNc1ccc(cn1)-c1ccnc(n1)N2", "meas-value": "1.91e-06"}
{"molecule": "CN1CCCN(C)c2ccc(cn2)-c2ccnc(n2)Nc2cccc(c2)N2CCN(CC2)CC1=O", "meas-value": "1.48e-06"}
